# target.or.test.system: Aldo-keto reductase family 1 member B1 (Homo sapiens, UniProt P15121)
# assay.details: In vitro inhibitory activity against aldose reductase isolated from human placenta
readout.kind: pIC50
Note on units: pIC50 is unitless, being -log10 of a concentration expressed in mol/L.

Check out these entries, answers already filled in.
O=C(O)Cc1nn(Cc2nc3cc(C(F)(F)F)ccc3o2)c(=O)c2ccccc12
7.51
O=C(O)Cc1nn(Cc2cc3cc(Br)ccc3s2)c(=O)c2ccccc12
6.00
O=C(O)Cc1nn(Cc2nc(-c3cccc(F)c3F)no2)c(=O)c2ccccc12
7.72
O=C(O)Cc1nn(Cc2nc3cc(Cl)cc(Cl)c3o2)c(=O)c2ccccc12
7.49
O=C(O)Cc1nn(CC(=O)Nc2cccc(C(F)(F)F)c2)c(=O)c2ccccc12
7.72
O=C(O)Cc1nn(Cc2csnc2-c2ccccc2)c(=O)c2ccccc12
5.00
O=C(O)Cc1nn(Cc2nc(-c3ccccc3Cl)no2)c(=O)c2ccccc12
7.64
O=C(O)Cc1nn(Cc2ccc3ccccc3n2)c(=O)c2ccccc12
4.23
COc1ccccc1-c1noc(Cn2nc(CC(=O)O)c3ccccc3c2=O)n1
6.33

Task: Return reported pIC50; argument: O=C(O)Cc1nn(C/C(S)=N/c2cccc(Cl)c2)c(=O)c2ccccc12
Output: 7.30
